TARGET: LEDGF-integrase interaction (His6-tagged HIV-1 integrase, flag-LEDGF/p75) (Human immunodeficiency virus type 1 group M subtype B)
Construct: His6-tagged HIV-1 integrase; made in house
ASSAY PROTOCOL: AlphaScreen assay of LEDGF-integrase interaction inhibition
Format: binding
DETAILS: compound at 100 μM
Give Alpha screen % (100 μM) for every item shown.
Express your answer in %, writing the number without its unit.

Bench note: what Alpha screen % (100 μM) did CCCC(C(=O)O)c1c(C)nc2cc(C(C)(C)C)nn2c1-c1ccccc1 (stereo not drawn) show?
77

Bench note: what Alpha screen % (100 μM) did CCCC(C(=O)O)c1c(C)nc2cc(C(C)(C)C)nn2c1-c1ccc(C(F)(F)F)cc1 (stereo not drawn) show?
70

Bench note: what Alpha screen % (100 μM) did CCCC(C(=O)O)c1c(C)nc2cc(C(C)(C)C)nn2c1-c1ccc2c(c1)CCCO2 (stereo not drawn) show?
76

Bench note: what Alpha screen % (100 μM) did CCCC(C(=O)O)c1c(C)nc2cc(C(C)(C)C)nn2c1-c1ccc(C)cc1N (stereo not drawn) show?
90

Bench note: what Alpha screen % (100 μM) did CCCC(C(=O)O)c1c(C)nc2cc(C(C)(C)C)nn2c1-c1ccc(C(C)C)cc1 (stereo not drawn) show?
89

Bench note: what Alpha screen % (100 μM) did CCCC(C(=O)O)c1c(C)nc2c(Cl)c(C(C)(C)C)nn2c1-c1ccc(C)cc1 (stereo not drawn) show?
67

Bench note: what Alpha screen % (100 μM) did CCCC(C(=O)O)c1c(C)nc2c(-c3ccccc3)c(C(C)(C)C)nn2c1-c1ccc(C)cc1 (stereo not drawn) show?
92

Bench note: what Alpha screen % (100 μM) did CCCC(C(=O)O)c1c(C)nc2cc(C(C)(C)C)nn2c1-c1ccc(F)cc1F (stereo not drawn) show?
90

Bench note: what Alpha screen % (100 μM) did CCCC(C(=O)O)c1c(C)nc2cc(-c3ccccc3)nn2c1-c1ccc(C)cc1 (stereo not drawn) show?
94

Bench note: what Alpha screen % (100 μM) did CCCC(C(=O)O)c1c(C)nc2cc(C(C)(C)C)nn2c1-c1ccc(CC)cc1 (stereo not drawn) show?
74

Bench note: what Alpha screen % (100 μM) did CCCC(C(=O)O)c1c(C)nc2cc(C(C)(C)C)nn2c1-c1ccc(C)c(C)c1 (stereo not drawn) show?
93

Bench note: what Alpha screen % (100 μM) did CCCC(C(=O)O)c1c(C)nc2cc(C(C)(C)C)nn2c1-c1ccc(Cl)cc1F (stereo not drawn) show?
75

Bench note: what Alpha screen % (100 μM) did CCCC(C(=O)O)c1c(C)nc2cc(C(C)(C)C)nn2c1-c1ccc2cc[nH]c2c1 (stereo not drawn) show?
30

Bench note: what Alpha screen % (100 μM) did CCCC(C(=O)O)c1c(C)nc2cc(C(C)(C)C)nn2c1-c1ccc(OC)cc1F (stereo not drawn) show?
83

Bench note: what Alpha screen % (100 μM) did CCCC(C(=O)O)c1c(C)nc2cc(C(C)(C)C)nn2c1-c1ccc(C)cc1C (stereo not drawn) show?
89

Bench note: what Alpha screen % (100 μM) did CCCC(C(=O)O)c1c(C)nc2cc(-c3ccco3)nn2c1-c1ccc(C)cc1 (stereo not drawn) show?
83

Bench note: what Alpha screen % (100 μM) did CCCC(C(=O)O)c1c(C)nc2cc(C(C)(C)C)nn2c1-c1ccc2sccc2c1 (stereo not drawn) show?
93

Bench note: what Alpha screen % (100 μM) did CCCC(C(=O)O)c1c(C)nc2cc(C(C)(C)C)nn2c1-c1ccc2c(c1)CCO2 (stereo not drawn) show?
93

Bench note: what Alpha screen % (100 μM) did CCCC(C(=O)O)c1c(C)nc2cc(C(C)(C)C)nn2c1-c1ccc2occc2c1 (stereo not drawn) show?
92

Bench note: what Alpha screen % (100 μM) did CCCC(C(=O)O)c1c(C)nc2ccnn2c1-c1ccc(C)cc1 (stereo not drawn) show?
84

Bench note: what Alpha screen % (100 μM) did CCCC(C(=O)O)c1c(C)nc2c(Br)c(C(C)(C)C)nn2c1-c1ccc(C)cc1 (stereo not drawn) show?
92

Bench note: what Alpha screen % (100 μM) did CCCC(C(=O)O)c1c(C)nc2cc(C(C)(C)C)nn2c1-c1ccc(C)cc1F (stereo not drawn) show?
75

Bench note: what Alpha screen % (100 μM) did Cc1ccc(-c2c(C(CCCC(F)(F)F)C(=O)O)c(C)nc3cc(C(C)(C)C)nn23)cc1 (stereo not drawn) show?
65

Bench note: what Alpha screen % (100 μM) did COCCC(C(=O)O)c1c(C)nc2cc(C(C)(C)C)nn2c1-c1ccc(C)cc1 (stereo not drawn) show?
44

Bench note: what Alpha screen % (100 μM) did CCCC(C(=O)O)c1c(C)nc2cc(C(C)(C)C)nn2c1-c1ccc2c(c1)OCCCO2 (stereo not drawn) show?
93

Bench note: what Alpha screen % (100 μM) did CCCc1cc2nc(C)c(C(CCC)C(=O)O)c(-c3ccc(C)cc3)n2n1 (stereo not drawn) show?
83

Bench note: what Alpha screen % (100 μM) did CCCC(C(=O)O)c1c(C)nc2cc(C(C)(C)C)nn2c1-c1ccc(C)cc1 (stereo not drawn) show?
92

Bench note: what Alpha screen % (100 μM) did CCCC(C(=O)O)c1c(C)nc2c(C)c(C(C)(C)C)nn2c1-c1ccc(C)cc1 (stereo not drawn) show?
81

Bench note: what Alpha screen % (100 μM) did CCCC(C(=O)O)c1c(C)nc2cc(C(C)(C)C)nn2c1-c1ccc(Cl)cc1 (stereo not drawn) show?
93

Bench note: what Alpha screen % (100 μM) did CCCC(C(=O)O)c1c(C)nc2cc(C(C)(C)C)nn2c1-c1ccc(C)cc1Cl (stereo not drawn) show?
95

The reported numbers originate from patent US20120316161A1.
